# Species: Rattus norvegicus
# Protocol notes: DrugMatrix - Regimen: Daily Repeat
# Assay type: toxicity, organism-based, Sprague-Dawley
# Design: regimen Daily Repeat, gender Male, age 6-8 weeks
# Condition info: in vivo, po, 0 mg/kg, 120 h, tissue Blood, route oral GAVAGE, dose level Control, time 5 day, vehicle 100 % WATER
Measure name: EOSINOPHIL (%)
Answers are plain numbers, in %.

Consider the reported EOSINOPHIL for these molecules:
O=C1NC(=O)C(c2ccccc2)(c2ccccc2)N1 ... 0.67
CC1(C)S[C@@H]2[C@H](NC(=O)[C@H](N)c3ccc(O)cc3)C(=O)N2[C@H]1C(=O)O ... 0
NC(=O)c1ncn([C@@H]2O[C@H](CO)[C@@H](O)[C@H]2O)n1 ... 0.17
CC(CCc1ccccc1)NCC(O)c1ccc(O)c(C(N)=O)c1 (stereo not given) ... 0

Q: Need EOSINOPHIL, item CN1CCC[C@H]1c1cccnc1
Ans: 0.5

====

# Species on record: Rattus norvegicus
# Protocol notes: DrugMatrix - Regimen: Daily Repeat
# Type: toxicity, organism-based, Sprague-Dawley
# Set-up: regimen Daily Repeat, gender Male, age 6-8 weeks
# Condition info: in vivo, po, 0 mg/kg, 72 h, tissue Plasma, route oral GAVAGE, dose level Control, time 3 day, vehicle 100 % WATER
Measure name: POTASSIUM (MEQ/L)
Numbers only, in MEQ/L.

Consider the reported POTASSIUM for these molecules:
CN1CCC[C@H]1c1cccnc1 ... 6.8
COc1cccc(C2(O)CCCCC2CN(C)C)c1 (stereo not given) ... 6.34
Cc1cc(NS(=O)(=O)c2ccc(N)cc2)no1 ... 6.58
Fc1ccc([C@@H]2CCNC[C@H]2COc2ccc3c(c2)OCO3)cc1 ... 6.34

# per-item lookup of POTASSIUM; items listed below
1. NNC(=O)c1ccncc1
2. NCC1(CC(=O)O)CCCCC1

Ans:
1: 6.35; 2: 6.36

# per-item lookup of POTASSIUM; items listed below
1. O=C1NC(=O)C(c2ccccc2)(c2ccccc2)N1
2. C[C@]12Cc3c[nH]nc3C[C@@H]1CC[C@@H]1[C@@H]2CC[C@@]2(C)[C@H]1CC[C@]2(C)O
3. CNCCC=C1c2ccccc2CCc2ccccc21
4. Cn1cnc([N+](=O)[O-])c1Sc1ncnc2nc[nH]c12

Ans:
1: 5.91; 2: 6.34; 3: 5.91; 4: 6.06

====

# Species on record: Rattus norvegicus
# Protocol notes: DrugMatrix - Regimen: Daily Repeat
# Type: toxicity, organism-based, Sprague-Dawley
# Set-up: regimen Daily Repeat, gender Male, age 6-8 weeks
# Condition info: in vivo, po, 0 mg/kg, 72 h, tissue Plasma, route oral GAVAGE, dose level Control, time 3 day, vehicle 100 % WATER
Measure name: PHOSPHORUS (mg/dL)
Numbers only, in mg/dL.

Clc1ccc(C(c2ccccc2Cl)C(Cl)Cl)cc1 (centres undefined) ... 12.08
CC1(C)S[C@@H]2[C@H](NC(=O)[C@H](N)c3ccc(O)cc3)C(=O)N2[C@H]1C(=O)O ... 12.95
CC(CCc1ccccc1)NCC(O)c1ccc(O)c(C(N)=O)c1 (centres undefined) ... 12.18

# per-item lookup of PHOSPHORUS; items listed below
1. CN1CCN(C(=O)OC2c3nccnc3C(=O)N2c2ccc(Cl)cn2)CC1 (centres undefined)
2. COc1cccc(C2(O)CCCCC2CN(C)C)c1 (centres undefined)
3. O=C1NC(=O)C(c2ccccc2)(c2ccccc2)N1
4. Cc1cc(NS(=O)(=O)c2ccc(N)cc2)no1
5. CNCCC=C1c2ccccc2CCc2ccccc21
6. C[C@]12Cc3c[nH]nc3C[C@@H]1CC[C@@H]1[C@@H]2CC[C@@]2(C)[C@H]1CC[C@]2(C)O
7. Fc1ccc([C@@H]2CCNC[C@H]2COc2ccc3c(c2)OCO3)cc1
8. COc1cc2c(N3CCN(C(=O)Nc4ccc(OC(C)C)cc4)CC3)ncnc2cc1OCCCN1CCCCC1

Ans:
1: 11.95; 2: 10.78; 3: 11.8; 4: 12.58; 5: 11.8; 6: 10.78; 7: 10.78; 8: 11

# per-item lookup of PHOSPHORUS; items listed below
1. NCC1(CC(=O)O)CCCCC1
2. CC1COc2c(N3CCN(C)CC3)c(F)cc3c(=O)c(C(=O)O)cn1c23 (centres undefined)
3. Nc1ccc(S(=O)(=O)Nc2ccnn2-c2ccccc2)cc1
4. COc1ccc(C(CN(C)C)C2(O)CCCCC2)cc1 (centres undefined)
5. CC(C)(S)[C@@H](N)C(=O)O

Ans:
1. 12.63
2. 14.27
3. 11.48
4. 12.58
5. 9.75

# per-item lookup of PHOSPHORUS; items listed below
1. CN1CCC[C@H]1c1cccnc1
2. Cn1cnc([N+](=O)[O-])c1Sc1ncnc2nc[nH]c12
3. NNC(=O)c1ccncc1

Ans:
1: 14.27; 2: 10.87; 3: 12.45

====

Give measured CHLORIDE for each item. Keep answers brief.
# Species on record: Rattus norvegicus
# Protocol notes: DrugMatrix - Regimen: Daily Repeat
# Type: toxicity, organism-based, Sprague-Dawley
# Design: regimen Daily Repeat, gender Male, age 6-8 weeks
# Condition info: in vivo, po, 0 mg/kg, 72 h, tissue Plasma, route oral GAVAGE, dose level Control, time 3 day, […]
Answers are plain numbers, in MEQ/L.

# per-item lookup of CHLORIDE; items listed below
1. CC1=C(/C=C/C(C)=C/C=C/C(C)=C\C(=O)O)C(C)(C)CCC1
2. CCCCCCCCCc1ccc(O)cc1
3. CC(C)(Oc1ccc(CCNC(=O)c2ccc(Cl)cc2)cc1)C(=O)O [BEZAFIBRATE]
4. CSc1ccc2c(c1)N(CCC1CCCCN1C)c1ccccc1S2 (stereo unspecified)
5. COC1=CC(=O)C[C@@H](C)[C@]12Oc1c(Cl)c(OC)cc(OC)c1C2=O
6. CCCC[C@@H](CC)COC(=O)c1ccccc1C(=O)OC[C@@H](CC)CCCC [BIS(2-ETHYLHEXYL)PHTHALATE]

Ans:
101
101
102.67
102.17
100
95.83

====

Give measured SODIUM for each item. Keep answers brief.
# Species: Rattus norvegicus
# Protocol notes: DrugMatrix - Regimen: Daily Repeat
# Type: toxicity, organism-based, Sprague-Dawley
# Design: regimen Daily Repeat, gender Male, age 6-8 weeks
# Condition info: in vivo, po, 0 mg/kg, 72 h, tissue Plasma, route oral GAVAGE, dose level Control, time 3 day, vehicle .5 % CMC
One number for each entry, in MEQ/L.

Consider the reported SODIUM for these compounds:
COc1c(C)c2c(c(O)c1C/C=C(\C)CCC(=O)OCCN1CCOCC1)C(=O)OC2 [MYCOPHENOLATE MOFETIL] ... 141.65
O=c1[nH]cc(F)c(=O)[nH]1 ... 143.67
CC1(C)[C@H]2CC[C@]1(C)C(=O)C2 [(-)-CAMPHOR] ... 141.28
O=C1CCc2cc(OCCCCc3nnnn3C3CCCCC3)ccc2N1 ... 140.33
C=C1CC[C@H](O)C/C1=C/C=C1\CCC[C@]2(C)[C@@H]([C@H](C)/C=C/[C@H](C)C(C)C)CC[C@@H]12 ... 143.47

# per-item lookup of SODIUM; items listed below
1. Cc1c(-c2ccccc2)oc2c(C(=O)OCCN3CCCCC3)cccc2c1=O [FLAVOXATE]
2. CCc1cccc2c3c([nH]c12)C(CC)(CC(=O)O)OCC3 (configuration not stated)
3. CCc1ccc(C(=O)C(C)CN2CCCCC2)cc1 (configuration not stated)
4. COC(=O)c1ccc(O)cc1
5. C[C@]12CCC(=O)C=C1CC[C@@H]1[C@@H]2C(=O)C[C@@]2(C)[C@H]1CC[C@]2(O)C(=O)CO
6. NCC(=O)O
7. Brc1ccccc1

Ans:
1. 142.85
2. 148
3. 143.72
4. 141.47
5. 148
6. 143.5
7. 142.45

====

# Species on record: Rattus norvegicus
# Protocol notes: DrugMatrix - Regimen: Daily Repeat
# Type: toxicity, organism-based, Sprague-Dawley
# Set-up: regimen Daily Repeat, gender Male, age 6-8 weeks
# Condition info: in vivo, po, 1500 mg/kg, 72 h, tissue Blood, route oral GAVAGE, dose level High, time 3 day, vehicle .5 % CMC
Give measured BASOPHIL for each item. Keep answers brief.
Numbers only, in %.

COC(=O)c1ccc(O)cc1 ... 0
O=C1CCc2cc(OCCCCc3nnnn3C3CCCCC3)ccc2N1 ... 0.53
NS(=O)(=O)c1cc2c(cc1Cl)NCNS2(=O)=O [HYDROCHLOROTHIAZIDE] ... 0

Next item in the queue.
Q: Need BASOPHIL, item CCOC(=O)[C@H](CCc1ccccc1)N[C@@H](C)C(=O)N1[C@H](C(=O)O)C[C@@H]2CCC[C@@H]21
Ans: 0
